Read-out: Monocyte Chemoattractant Protein-1 (MCP1), CCL2 (gene 6347)
Experiment: BSK_CASM3C_MCP1: BioMAP Diversity Plus: CASM3C Assay for Monocyte Chemoattractant Protein-1 (MCP1) Biomarker Activity (AID 2283046);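 note: MCP-1 level quantified by ELISA 24 h after dosing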
Conditions: primary human coronary artery smooth muscle cells; actives raise or lower the signal
Active and inactive are the calls of the source. Rule for the calls: active = hit-call score of the fitted dose curve at least 0.9, where 1 is the maximum; inactive = score below 0.9.
Log the outcome using a class from yes (1) = active, no (0) = inactive

Request: Per the assay record, what outcome was assigned to N#C[C@@H]1CC(F)(F)CN1C(=O)CNC1CC2CCC(C1)N2c1ncccn1 (stereo partly specified) ?
Response: no (0)

Request: Assay outcome for "c1ccc2cc3c(ccc4ccccc43)cc2c1" : what was it?
Response: no (0)

Request: Please indicate how the test categorized COCC(C)OCC(C)O (stereo unspecified) .
Response: no (0)

Continuing:
Request: // outcome(item) with item = "Nc1cccc2c(N)cccc12"
Response: no (0)

Request: Dear all, I need the recorded test outcome for "CCCCCCCCCCCCCC[N+](C)(C)C" , thank you.
Response: yes (1)

Just for reference, PubChem BioAssay (EPA / NIEHS) is where these values come from.
